Tested on: RIN5F (Rat Insulinoma) cells
Test: In vitro glucose-dependent insulin secretion (RIN5F cell assay screening protocol)
Type: cell-based
Details: 10 nM test compd., 16.7 mM glucose load
Starred links: 1 amine or outer side, 2 acyl side, 3 side chain; linkers in the order of their positions; H or OH if unused. Non-standard residues stand in square brackets, D forms with d. Residues, ends and D or L forms follow the SMILES beside them. ξ: configuration not given here. ξBip(2'-Et-4'-OMe) = CCc1cc(OC)ccc1-c1ccc(CC(N)C(=O)O)cc1; X6 = O=C(C(CCCc1ccc(Cl)cc1Cl)N[*:1])[*:2]; ξAbu(4-CN) = N#CCCC(N)C(=O)O; Aib = CC(C)(N)C(=O)O
Experimental readout: Insulin secretion

Recorded results for 2 molecules are shown here.
| Molecule | Result |
| --- | --- |
| CCc1cc(OC)ccc1-c1ccc(CC(NC(=O)[C@H](CC(=O)O)NC(=O)[C@H](CO)NC(=O)[C@@H](NC(=O)C(C)(Cc2ccccc2F)NC(=O)[C@@H](NC(=O)CNC(=O)[C@H](CCC(N)=O)NC(=O)C(C)(C)NC(=O)[C@H](Cc2c[nH]cn2)NC(C)=O)[C@H](C)O)[C@H](C)O)C(=O)NC(CCCc2ccccc2F)C(N)=O)cc1 (single isomer, unassigned) | 28.1 ± 0.29 pg/µg/h |
| CCc1cc(OC)ccc1-c1ccc(CC(CNC(CCCc2ccccc2F)C(N)=O)NC(=O)[C@H](CC(=O)O)NC(=O)[C@H](CO)NC(=O)[C@@H](NC(=O)C(C)(Cc2ccccc2F)NC(=O)[C@@H](NC(=O)CNC(=O)C(CCC#N)NC(=O)C(C)(C)NC(=O)[C@@H](N)Cc2c[nH]cn2)[C@H](C)O)[C@H](C)O)cc1 (single isomer, unassigned) | 36.7 ± 0.11 pg/µg/h |

Now consider the entry below.
Lookup: May I ask what Insulin secretion has been recorded for CCc1cc(OC)ccc1-c1ccc(CC(NC(=O)[C@H](CC(=O)O)NC(=O)[C@H](CO)NC(=O)[C@@H](NC(=O)[C@H](Cc2ccccc2)NC(=O)[C@@H](NC(=O)CNC(=O)C(CCC#N)NC(=O)C(C)(C)NC(=O)[C@@H](N)Cc2c[nH]cn2)[C@@H](C)O)[C@@H](C)O)C(=O)NC(CCCc2ccc(Cl)cc2Cl)C(N)=O)cc1 (stereo partly drawn) [compound 83] (H-H[Aib][ξAbu(4-CN)]GTFTSD[ξBip(2'-Et-4'-OMe)][X6]-NH2) ?
Found: 28.0 ± 0.16 pg/µg/h
